# experimentalTarget: human serum albumin (Homo sapiens, UniProt P02768)
# Construct: purchased Daicel, Tokio, Japan Chiralpak HSA column (50 × 3 mm, 5 μm, H13 h-2433)
# Sequence (P02768 25-609): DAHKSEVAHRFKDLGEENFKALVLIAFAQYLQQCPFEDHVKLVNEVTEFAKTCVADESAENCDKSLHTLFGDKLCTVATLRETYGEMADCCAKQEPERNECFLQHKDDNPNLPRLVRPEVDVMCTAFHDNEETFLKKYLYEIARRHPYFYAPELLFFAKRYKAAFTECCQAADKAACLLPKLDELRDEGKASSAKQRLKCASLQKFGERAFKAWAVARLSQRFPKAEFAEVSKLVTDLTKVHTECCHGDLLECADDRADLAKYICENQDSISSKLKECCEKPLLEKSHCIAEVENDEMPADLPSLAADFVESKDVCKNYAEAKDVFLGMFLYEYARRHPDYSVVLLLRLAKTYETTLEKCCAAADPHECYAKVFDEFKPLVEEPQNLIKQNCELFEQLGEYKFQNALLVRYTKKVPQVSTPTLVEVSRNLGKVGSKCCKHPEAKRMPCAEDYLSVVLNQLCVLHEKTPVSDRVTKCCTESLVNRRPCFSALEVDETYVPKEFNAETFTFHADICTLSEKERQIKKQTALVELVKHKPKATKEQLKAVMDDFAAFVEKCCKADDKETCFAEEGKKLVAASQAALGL
# procedureSummary: human serum albumin binding by HPAC
# Type: in vitro ADME
# testConditions: non-radiolabeled compounds, n=1
parameter: HSA binding (HPAC) (%)
Field format: number, assumed %, no unit text.

The recorded HSA binding (HPAC) with human serum albumin (Homo sapiens, UniProt P02768) for C[C@@H](O)[C@H](NC(=O)[C@@H]1CSSC[C@H](NC(=O)[C@@H](Cc2ccccc2)NC(=O)CN2CCN(CC(=O)O)CCN(CC(=O)NC[C@@H](NC(=O)c3cc(CN)cc([Si](F)(C(C)(C)C)C(C)(C)C)c3)C(=O)O)CCN(CC(=O)O)CC2)C(=O)N[C@@H](Cc2ccc(O)cc2)C(=O)N[C@H](Cc2c[nH]c3ccccc23)C(=O)N[C@@H](CCCCN)C(=O)N[C@@H]([C@@H](C)O)C(=O)N1)C(=O)O [[natGa]Ga-(SiFA)SeFe-rhTATE1, metal not drawn] was 99

====

# procedureSummary: stability of 18F-labeled model bioconjugates, reverse isotopic exchange
# Format: physicochemical
# testConditions: buffer, pH 6.5; reverse isotopic exchange, 18F-labeled, Radio-TLC; read-out: Half-life, pH 6.5, 1 mM aq. NaF, RT
Lab note: cut-off is 30 min. Strictly less in half-life is condition met. Exactly 30 min or more is condition not met.

Some solved cases for reference:
{"structureString": "CC(C)(C)[Si](F)(c1cc(CNC(=O)[C@@H](N)CCC(=O)O)cc(C(=O)NCC(=O)N[C@@H](CC(=O)O)C(=O)O)c1)C(C)(C)C", "categoryLabel": "condition not met"}
{"structureString": "CC(C)(C)[Si](F)(c1cc(CNC(=O)[C@@H](N)CCCCN)cc(C(=O)NCC(=O)N[C@@H](CC(=O)O)C(=O)O)c1)C(C)(C)C", "categoryLabel": "condition met"}
{"structureString": "CC(C)(C)[Si](F)(c1cc(CNC(=O)[C@@H](N)CCCCN)cc(C(=O)NCC(=O)N[C@@H](Cc2ccc(O)cc2)C(=O)O)c1)C(C)(C)C", "categoryLabel": "condition met"}
{"structureString": "CC(C)(C)[Si](F)(c1cc(CNC(=O)[C@@H](N)CCC(=O)O)cc(C(=O)NCC(=O)N[C@@H](CCCCN)C(=O)O)c1)C(C)(C)C", "categoryLabel": "condition not met"}
{"structureString": "CC(C)(C)[Si](F)(c1cc(CNC(=O)[C@@H](N)CCCCN)cc(C(=O)NCC(=O)N[C@@H](CCCCN)C(=O)O)c1)C(C)(C)C", "categoryLabel": "condition met"}

Q: Is half-life of CC(C)(C)[Si](F)(c1cc(CNC(=O)[C@@H](N)CCC(=O)O)cc(C(=O)NCC(=O)N[C@@H](Cc2ccc(O)cc2)C(=O)O)c1)C(C)(C)C strictly below 30 min?
Ans: condition not met

====

# procedureSummary: stability of 18F-labeled model bioconjugates, physiological conditions
# Type: physicochemical
# testConditions: buffer, pH 7.4
Listed below: half-life values for each entry.
Give a bare numeral; the unit min is implied.

Sample answers from the record:
{"structureString": "CC(C)(C)[Si](F)(c1cc(CN)cc(C(=O)NCC(=O)N[C@@H](CC(=O)O)C(=O)O)c1)C(C)(C)C", "half-life [min]": 299}
{"structureString": "CC(C)(C)[Si](F)(c1cc(CN)cc(C(=O)NCC(=O)N[C@@H](Cc2ccc(O)cc2)C(=O)O)c1)C(C)(C)C", "half-life [min]": 14}

Attention now shifts to the item below.
Consider CC(C)(C)[Si](F)(c1cc(CN)cc(C(=O)NCC(=O)N[C@@H](CCCCN)C(=O)O)c1)C(C)(C)C . Its measured half-life is 27

====

# procedureSummary: stability of 18F-labeled model bioconjugates, lutetium labeling conditions
# Type: physicochemical
# testConditions: buffer, pH 5.5; lutetium labeling conditions, 18F-labeled, Radio-TLC; read-out: Half-life, pH 5.5, 90 °C (converted)
Give label 1 when the value for half-life is at least 40 h. Give label 0 when it is less.

Look over these answered cases.
{"structureString": "CC(C)(C)[Si](F)(c1cc(CNC(=O)[C@@H](N)CCC(=O)O)cc(C(=O)NCC(=O)N[C@@H](CC(=O)O)C(=O)O)c1)C(C)(C)C", "categoryLabel": "label 1"}
{"structureString": "CC(C)(C)[Si](F)(c1cc(CNC(=O)[C@@H](N)CCC(=O)O)cc(C(=O)NCC(=O)N[C@@H](Cc2ccc(O)cc2)C(=O)O)c1)C(C)(C)C", "categoryLabel": "label 1"}
{"structureString": "CC(C)(C)[Si](F)(c1cc(CNC(=O)[C@@H](N)CCCCN)cc(C(=O)NCC(=O)N[C@@H](CCCCN)C(=O)O)c1)C(C)(C)C", "categoryLabel": "label 0"}

Q: Decide: is the reported value of half-life for CC(C)(C)[Si](F)(c1cc(CNC(=O)[C@@H](N)CCCCN)cc(C(=O)NCC(=O)N[C@@H](Cc2ccc(O)cc2)C(=O)O)c1)C(C)(C)C equal to or greater than 40 h?
Ans: label 1

Q: Given CC(C)(C)[Si](F)(c1cc(CNC(=O)[C@@H](N)CCCCN)cc(C(=O)NCC(=O)N[C@@H](CC(=O)O)C(=O)O)c1)C(C)(C)C , state whether its half-life is at least 40 h.
Ans: label 1

====

Form field: remaining at 24 h, 25 MBq/mL (one value per entry).
# procedureSummary: stability in human serum (radio-RP-HPLC)
# Format: in vitro ADME
# testConditions: human, serum, 37 °C, n=3, read-out: Intact tracer in human serum, 24 h
Supply the numeric figure in %, leaving out any unit text.

{"molecule": "C[C@@H](O)[C@H](NC(=O)[C@@H]1CSSC[C@H](NC(=O)[C@@H](Cc2ccccc2)NC(=O)COCCOCCNC(=O)[C@@H](CNC(=O)CN2CCN(CC(=O)O)CCN(CC(=O)O)CCN(CC(=O)O)CC2)NC(=O)COCCOCCNC(=O)c2cc(CN)cc([Si](F)(C(C)(C)C)C(C)(C)C)c2)C(=O)N[C@@H](Cc2ccc(O)cc2)C(=O)N[C@H](Cc2c[nH]c3ccccc23)C(=O)N[C@@H](CCCCN)C(=O)N[C@@H]([C@@H](C)O)C(=O)N1)C(=O)O [[177Lu]Lu-(SiFA)SeFe-rhTATE3, metal not drawn]", "parameter": "remaining at 24 h, 25 MBq/mL", "dataValue": 94}

Let us move to another entry and its remaining at 24 h, 25 MBq/mL.
Summary for this molecule, C[C@@H](O)[C@H](NC(=O)[C@@H]1CSSC[C@H](NC(=O)[C@@H](Cc2ccccc2)NC(=O)COCCOCCNC(=O)[C@@H](CNC(=O)CN2CCN(CC(=O)O)CCN(CC(=O)O)CCN(CC(=O)O)CC2)NC(=O)COCCOCCNC(=O)c2ccc([Si](F)(C(C)(C)C)C(C)(C)C)cc2)C(=O)N[C@@H](Cc2ccc(O)cc2)C(=O)N[C@H](Cc2c[nH]c3ccccc23)C(=O)N[C@@H](CCCCN)C(=O)N[C@@H]([C@@H](C)O)C(=O)N1)C(=O)O [[177Lu]Lu-(SiFA)BA-rhTATE3, metal not drawn] : remaining at 24 h, 25 MBq/mL is 60

====

# procedureSummary: stability of 18F-labeled model bioconjugates, lutetium labeling conditions
# Assay type: physicochemical
# testConditions: buffer, pH 5.5
parameter: half-life (h)
# number only, unit h dropped from output

Take a look at these entries with their results.
{"structureString": "CC(C)(C)[Si](F)(c1cc(CN)cc(C(=O)NCC(=O)N[C@@H](Cc2ccc(O)cc2)C(=O)O)c1)C(C)(C)C", "scaleUnit": "h", "half-life": 43}
{"structureString": "CC(C)(C)[Si](F)(c1cc(CN)cc(C(=O)NCC(=O)N[C@@H](CC(=O)O)C(=O)O)c1)C(C)(C)C", "scaleUnit": "h", "half-life": 37}

Field half-life (entry CC(C)(C)[Si](F)(c1cc(CN)cc(C(=O)NCC(=O)N[C@@H](CCCCN)C(=O)O)c1)C(C)(C)C ) reads 38
